Attribution: PubChem BioAssay (NCI)

test system: BT-549 breast; experiment: NCI-60 one-dose screen, 48 h; settings: 10 µM unless noted
This is part of a sample that, as a whole, favours compounds with a hit. Of some 83,000 tested, about 20% had one in any assay. Activity calls are given as the source filed them. Rule for the calls: active = growth percent below 10; inactive = the rest.
Classes used: TRUE (active), FALSE (inactive)

{"Compound": "COC(=O)[C@]12CC[C@@H](C)[C@H](C)[C@@H]1C1=CC[C@@H]3[C@@]4(C)C[C@@H](O)OC[C@](C)(C=O)C4C(=O)C[C@@]3(C)[C@]1(C)CC2 (some centres not stated)", "Group": "TRUE"}
{"Compound": "Cc1cc(C)c(NC(=O)c2sc3nc4c(cc3c2N)CCCC4)c(C)c1", "Group": "FALSE"}
{"Compound": "COc1cc2[nH]c(C(=O)c3cc(OC)c(OC)c(OC)c3)c(N)c2cc1C#CCO", "Group": "FALSE"}
{"Compound": "COc1ccc(/C=C2\\N=C(c3ccccc3)N(c3cc(OC)c(OC)cc3C(=O)N3N=C(C)CC3=O)C2=O)cc1", "Group": "FALSE"}
{"Compound": "COc1cccc2c1C(=O)c1c(O)c3c(c(O)c1C2=O)C[C@@](O)(C(=O)CO)C[C@@H]3OC1C[C@H](N)[C@H](O)[C@H](C)O1 (some centres not stated)", "Group": "TRUE"}
{"Compound": "Cc1[c-]onc1C.Cc1[c-]onc1C.[Ag].[Ag].[NH-]S(=O)(=O)c1ccc(N=Nc2cc(N=Nc3ccc(S([NH-])(=O)=O)cc3)c3c(NC(=O)C(Cl)Cl)cccc3c2OC(=O)C(Cl)Cl)cc1", "Group": "FALSE"}
{"Compound": "COc1ccc(/C=C/C(=O)NCCO)cc1", "Group": "FALSE"}

* * *

system: DU-145 prostate; test: NCI-60 one-dose screen, 48 h; conditions: 10 µM unless noted
The panel holds about 83,000 compounds, 20% with a hit somewhere; the sample as a whole holds those more often. Active and inactive are the calls of the source. How the source made its calls: active means growth percent below 10; inactive means the rest.
Classes used: active, inactive

{"Compound": "Cn1cc(-c2csc(-c3cn(CCCN4CCCCC4)c4ccccc34)n2)c2cccnc21", "Group": "active"}
{"Compound": "C[C@@H](C(=O)O)c1ccc2c3cc(Cl)ccc3n(Cc3cc(=O)oc4ccc(Cl)cc34)c2c1", "Group": "inactive"}
{"Compound": "COc1ccc(NC(=O)c2ccc3c(c2)nc(-c2cc4ccccc4[nH]c2=O)n3-c2cc(C(C)(C)C)[nH]n2)cc1", "Group": "inactive"}
{"Compound": "Brc1cnc2[nH]cc(-c3nnc(-c4ccccc4)o3)c2c1", "Group": "inactive"}
{"Compound": "Nc1c(C(=O)Nc2c(Cl)cccc2Cl)sc2nc3c(cc12)CCCC3", "Group": "inactive"}
{"Compound": "Cc1cc(N2CCCC2)nc(N(CCNc2ccnc3cc(Cl)ccc23)Cc2ccco2)n1", "Group": "inactive"}
{"Compound": "COc1cc(-c2nc(-c3ccccc3)c(-c3ccccc3)[nH]2)cc(OC)c1O", "Group": "active"}
{"Compound": "CC/C=C\\C[C@H]1CC=C2C(=O)C=C[C@@H]2CC=CCCCC(=O)O[C@@H](CCCCC)CC=C2C(=O)C=C[C@@H]2CC=CCCCC(=O)O[C@@H](CCCCC)CC=C2C(=O)C=C[C@@H]2CC=CCCCC(=O)O[C@@H](CCCCC)CC=C2C(=O)C=C[C@@H]2CC=CCCCC(=O)O1", "Group": "inactive"}
{"Compound": "Cc1cc(Cl)nc(N(CCNc2ccnc3cc(Cl)ccc23)Cc2ccco2)n1", "Group": "inactive"}
{"Compound": "CC(=O)O[C@H]1CC[C@]2(C)[C@H]3C(=O)C=C4[C@@H]5C[C@](C)(C(=O)N6CCCNCC6)CC[C@]5(C)CC[C@@]4(C)[C@]3(C)CC[C@H]2C1(C)C", "Group": "active"}
{"Compound": "COc1ccc(C(=O)c2ccc(C)cc2)c(OC)c1OC", "Group": "inactive"}
{"Compound": "COc1cc2c3c(c4c5ccccc5[nH]c4c2c(OC)c1OC)C(=O)N(O)C3=O", "Group": "inactive"}
{"Compound": "C=C(C)[C@@H]1CC[C@]2(C(=O)N3CCN(CC)CC3)CC[C@]3(C)[C@H](CC[C@@H]4[C@@](C)(CCC(=O)N5CCN(CC)CC5)[C@H](C(=C)C)CC[C@]43C)[C@@H]12", "Group": "inactive"}
{"Compound": "Nc1c2c(nc3ccc(Cl)cc13)CC(c1ccccc1)CC2=O (centres undefined)", "Group": "inactive"}
{"Compound": "CC(=O)NC1=C(C#N)C(c2ccccc2Cl)c2c(ccc3ccccc23)O1 (centres undefined)", "Group": "inactive"}
{"Compound": "Cn1cc(-c2nc(-c3c[nH]c4ncccc34)cs2)c2cc(Br)ccc21", "Group": "inactive"}
{"Compound": "O=C1/C(=C\\c2ccc(Br)o2)SC(=S)N1CCc1ccc(O)cc1", "Group": "inactive"}
{"Compound": "COc1cccc(-c2nn(-c3ccccc3)cc2-c2ccnc(NCCNS(=O)(=O)c3ccccc3)c2)c1", "Group": "inactive"}
{"Compound": "O=C1CNCCN1", "Group": "inactive"}
{"Compound": "CCCCC[C@H]1C/C=C2/C(=O)C(Cl)=C[C@@H]2C/C=C\\CCCC(=O)O[C@@H](CCCCC)C/C=C2/C(=O)C(Cl)=C[C@@H]2C/C=C\\CCCC(=O)O1", "Group": "active"}
{"Compound": "CC(C)c1cc(C(=O)O)c(O)c(C(C)C)c1.CC(C)c1cc(C(=O)O)c(O)c(C(C)C)c1.[Mn]", "Group": "inactive"}
{"Compound": "COC(=O)[C@]12CC[C@@H](C)[C@H](C)[C@@H]1C1=CC[C@@H]3[C@@]4(C)C(c5ncon5)=C[C@@](C)(CO)C4=CC[C@@]3(C)[C@]1(C)CC2", "Group": "active"}
{"Compound": "COc1cc(OC)c2c(c1)c1nc3cc(C)c(C)cc3nc1n2CCN(C)C", "Group": "inactive"}
{"Compound": "O=C1C(=O)c2ccccc2C(O)=C1CCCc1ccc(C2CCCCC2)cc1", "Group": "inactive"}
{"Compound": "CC1(C)C(=O)/C(=C\\c2ccco2)C[C@]2(C)[C@H]3CC[C@@H]4[C@@H](C(=O)/C=C/c5ccco5)CC[C@@]4(C)[C@]3(C)CC[C@@H]12", "Group": "inactive"}
{"Compound": "N#Cc1c(-c2ccc(O)cc2)c2c(N)nn(-c3ccccc3)c2[nH]c1=O", "Group": "inactive"}
{"Compound": "Cc1cc2nc3c4cc([N+](=O)[O-])cc([N+](=O)[O-])c4n(CCN(C)C)c3nc2cc1C", "Group": "inactive"}
{"Compound": "COc1cc2ncnc(Nc3ccc(OCc4cccc(F)c4)c(Cl)c3)c2cc1NC(=O)C1CCCC1", "Group": "inactive"}
{"Compound": "C=C(C)[C@@H]1CC[C@]2(C)CC[C@]3(C)[C@H](CC[C@@H]4[C@@]5(C)CCCNC(C)(C)[C@@H]5CC[C@]43C)[C@@H]12", "Group": "inactive"}
{"Compound": "Cc1cc(N(CCCNc2ccnc3cc(Cl)ccc23)Cc2ccco2)nc(Cl)n1", "Group": "inactive"}
{"Compound": "c1ccc(-c2nc(Nc3ccc(-c4nc5ccccc5[nH]4)cc3)nc(N3CCOCC3)n2)cc1", "Group": "active"}
{"Compound": "Cn1c(=O)c2c(nc(Br)n2CC(=O)Nc2ccc(F)cc2)n(C)c1=O", "Group": "inactive"}
{"Compound": "Clc1ccccc1-c1nc(Nc2nc3ccccc3s2)nc(C(Cl)(Cl)Cl)n1", "Group": "inactive"}
{"Compound": "O=C(NC(Cc1cn(Cc2ccccc2)cn1)C(=O)O)OCC1c2ccccc2-c2ccccc21 (centres undefined)", "Group": "inactive"}
